# credit: PubChem BioAssay (NCI)

Consider the following molecules and their measured TGI readings.
Tested on: NCI/ADR-RES ovarian
Assay: NCI tumour cell line growth inhibition, 48 h
Readout Type: TGI (µM)

>>> reading("Oc1cn(-c2ccc(Cl)cc2)nc1-c1n[nH]c(=S)n1C1CCCCC1")
1.05
>>> reading("COc1cc(C2=C(c3cn(C)c4ccccc34)COC2=O)cc(OC)c1OC")
2.07
>>> reading("Cc1cc[c-]cc1.Fc1c[c-]c(-c2ccccn2)c(F)c1.[Pt+2].c1ccc(P(C[PH+](c2ccccc2)c2ccccc2)c2ccccc2)cc1")
48.2
>>> reading("Cc1ccc([C@H]2CC(=O)C[C@H](c3ccc(C)cc3)C23C(=O)c2ccccc2C3=O)cc1")
30.2
>>> reading("C=C1C(=O)O[C@H]2[C@H]1CC/C(COC(=O)c1ccc(Cl)nc1)=C\\CC[C@@]1(C)O[C@@H]21")
23.9

---

Tested on: UACC-257 melanoma
Assay: NCI tumour cell line growth inhibition, 48 h
Readout Type: TGI

>>> reading("COc1ccc(C(=O)COc2cccc(/C=C3\\Oc4ccc5ccccc5c4C3=O)c2)cc1")
"32.4 µM"
>>> reading("CC(C)S(=O)(=O)c1ccccc1Nc1nc(Nc2cccc(NC(=O)CN)c2)ncc1Cl")
"6.73 µM"
>>> reading("CCn1nc2c3c(ncn3C(C)(C)O2)c1=O")
"> 100 µM"
>>> reading("CC1CCC(=O)C(C(=O)CC2CC(=O)NC(=O)C2)C1 (stereo unspecified)")
"> 100 µM"
>>> reading("O=c1nc2c(c(-c3ccccc3Cl)[nH]1)COC/C2=C\\c1ccccc1Cl")
"> 100 µM"
>>> reading("COC(=O)CCC(=O)CC1CC(=O)C2CCCN12 (stereo unspecified)")
"> 100 µM"
>>> reading("CCC1(C(=O)OC(C)(C)C)OC12C(C)CCCC2C (stereo unspecified)")
"> 100 µM"
>>> reading("CCOC(=O)CNC(=O)c1ccccc1Nc1ccnc(C(F)(F)F)c1")
"> 100 µM"
>>> reading("C1C[OH+]CCNCC[OH+]CC[OH+]CCN1.[Cl-].[Pt+4]")
"> 100 µM"
>>> reading("O=C(NC(Cc1ccc(I)cc1)C(=O)O)c1ccc(Br)cc1 (stereo unspecified)")
"> 100 µM"
>>> reading("O=C(Nc1ccc(Br)cc1)c1ccc(Cl)c(Cl)c1")
"> 89.2 µM"

---

System: SNB-75 CNS
Test: NCI tumour cell line growth inhibition, 48 h; in the data active = GI50 below about 0.43 µM; inactive = the rest
Possible outcomes: active, inactive

>>> label("COCCOc1cnc2ccn([C@H](C)c3nnc4c(F)cc(-c5cnn(C)c5)cn34)c(=O)c2c1")
"inactive"
>>> label("N#C/C(=C/N1CCN(C(=O)c2ccco2)C1=S)C(=O)c1ccccc1")
"inactive"
>>> label("N.N.N.N.[Cl-].[Co+3].[N-]=[N+]=[N-].[N-]=[N+]=[N-]")
"inactive"
>>> label("C1C[OH+]CCNCC[OH+]CC[OH+]CCN1.[Cl-].[Pt+4]")
"inactive"
>>> label("NC(CS/C(Cl)=C/Cl)C(=O)O (centres undefined)")
"inactive"
>>> label("Cc1ccc(S(=O)(=O)NCCNc2nccc(-c3c(-c4ccc(F)cc4)nc4sccn34)n2)cc1")
"inactive"
>>> label("COc1ccc(Nc2c3ccccc3nc3occ(Cl)c23)cc1")
"active"
>>> label("CC(=O)O[C@H](C[C@H](C(C)C)N(C)C(=O)[C@@H](NC(=O)[C@H]1CCCCN1C)C(C)C)c1nc(C(=O)N[C@@H](Cc2ccccc2)C[C@H](C)C(=O)O)c(CCOCc2ccccc2)s1")
"active"
>>> label("C[C@@]12CCCc3coc(c31)C(=O)c1cc3c(cc12)C(=O)C=CC3=O")
"inactive"

---

Test system: NCI-H522 lung
Assay: NCI tumour cell line growth inhibition, 48 h
Consider the following compounds and their measured TGI readings.
Readout Type: TGI

>>> reading("N#C/C(=C\\n1ccc(=O)[nH]c1=S)C(N)=O")
"> 100 µM"
>>> reading("COc1ccc2ncn(-c3cc(O[C@H](C)c4ccccc4Cl)c(C(N)=O)s3)c2c1")
"0.221 µM"
>>> reading("CC1=NN2C(=N)/C(=C/c3ccco3)C(=O)N=C2S1")
"> 100 µM"
>>> reading("Nc1nc(SN=Nc2ccc(S(N)(=O)=O)cc2)c2[nH]cnc2n1")
"43.1 µM"
>>> reading("Cc1ccn2c(=O)cc(-c3ccccc3)nc2c1")
"> 100 µM"
>>> reading("CCC1(C(=O)OC(C)(C)C)OC12C(C)CCCC2C (stereo not drawn)")
"> 100 µM"
>>> reading("Cc1ccc(-c2cc(N)n(-c3nc4c(c(=O)n(C)c(=O)n4C)n3C)n2)cc1")
"> 100 µM"
>>> reading("O=C1NC(N/N=C/C(O)C(O)C(O)CO)=N/C1=C\\c1ccco1 (stereo not drawn)")
"> 100 µM"
>>> reading("C[n+]1cc(C(O)c2ccc3c(c2)OCO3)c2ccccc2c1 (stereo not drawn)")
"48.1 µM"
>>> reading("CN(C)C(=S)/N=c1\\ss/c(=N\\C(=S)N(C)C)n1-c1ccc(Cl)c(Cl)c1")
"> 100 µM"
>>> reading("CCCCCC(=O)NC(=S)Nc1nn[nH]n1")
"> 100 µM"
>>> reading("CC1Cn2c(nc3ccccc32)NC1=O (stereo not drawn)")
"> 100 µM"
>>> reading("COc1cccc(-n2c3nc(=O)n(C)c(=O)c-3nc3ccccc32)c1")
"97.5 µM"
>>> reading("COc1cc(Nc2c3ccccc3nc3ccccc23)ccc1NS(C)(=O)=O")
"12.9 µM"
>>> reading("Cc1cc(N/N=C/c2nc(-c3ccc(Br)cc3)oc2C)c2cc(Br)ccc2n1")
"5.62 µM"
>>> reading("[Au+].[Au+].[Au+].[c-]1nccn1Cc1ccccc1.[c-]1nccn1Cc1ccccc1.[c-]1nccn1Cc1ccccc1")
"2.95 µM"
>>> reading("CC(C)OC(=O)NNc1cc(Cl)ccc1Cl")
"> 100 µM"
>>> reading("O=C(Nc1ccc(-c2ccccc2)cc1)C1CCN(S(=O)(=O)c2ccccc2Cl)CC1")
"> 100 µM"
>>> reading("O=C1c2ccccc2CCCCCCCCCCC12OCCCO2")
"67.2 µM"
>>> reading("Cc1c(C2=C(Br)C(=O)N(C)C2=O)c(=O)n(C)c(=O)n1C")
"29.5 µM"
>>> reading("C1C[OH+]CCNCC[OH+]CC[OH+]CCN1.[Cl-].[Pt+4]")
"> 100 µM"
>>> reading("COC(=O)C1=CC(=O)OC1(OO)c1ccccc1 (stereo not drawn)")
"> 100 µM"
>>> reading("Cc1ccc2c(c1)[nH]c1cc(C(F)(F)F)ccc1[p+]2=O (stereo not drawn)")
"> 100 µM"

---

Test system: MDA-MB-435
Test: NCI tumour cell line growth inhibition, 48 h
Readout Type: TGI

>>> reading("O=C1CCCCC(=O)OC2(CCCCC2=O)CC1 (stereo unspecified)")
"> 100 µM"
>>> reading("COc1ccc(Nc2nc(NS(=O)(=O)c3cc(C)c(Cl)cc3S)n[nH]2)cc1")
"> 100 µM"
>>> reading("CC(C)CNC(=O)O")
"> 100 µM"
>>> reading("O=C(NCCCCCCNCc1cccc2ccccc12)Nc1cccc2ccccc12")
"> 100 µM"
>>> reading("CCC1(C)N=C(c2cnccn2)NN1c1ccc(Cl)cc1 (stereo unspecified)")
"> 100 µM"
>>> reading("Cc1cc(C2CC(O)C(CO)O2)cc2c(=O)[nH]c(N)nc12 (stereo unspecified)")
"> 100 µM"
>>> reading("[Au+].[Au+].[Au+].[c-]1nccn1Cc1ccccc1.[c-]1nccn1Cc1ccccc1.[c-]1nccn1Cc1ccccc1")
"34.2 µM"
>>> reading("Cc1cc(S(=O)(=O)N/N=C(\\Sc2cc(Cl)c(C)cc2S(N)(=O)=O)c2ccc(Cl)cc2)c(Cl)cc1Cl")
"> 100 µM"
>>> reading("Cc1cc[c-]cc1.Fc1c[c-]c(-c2ccccn2)c(F)c1.[Pt+2].c1ccc(P(C[PH+](c2ccccc2)c2ccccc2)c2ccccc2)cc1")
"6.2 µM"
>>> reading("CCc1ccccc1NC(=O)c1sc2nc3c(cc2c1N)C(=O)CCC3")
"0.336 µM"
>>> reading("COC(=O)[C@@H]1CCCN1CCN1CCC[C@H]1C(=O)OC")
"> 100 µM"
>>> reading("CC1CCOc2ccc(cc2)C=Nc2ccc(cc2)CCc2ccc(cc2)N=Cc2ccc(cc2)OCC1 (stereo unspecified)")
"> 100 µM"
>>> reading("O=C(/C=C/c1cc(CN2CCOCC2)c(O)c2ncccc12)c1cc(CN2CCOCC2)c(O)c2ncccc12")
"> 100 µM"
>>> reading("O=c1c2c([N+](=O)[O-])cccc2nc2[nH]c3ccccc3n12")
"> 75 µM"
>>> reading("CN(O)C(=O)c1cccc(Cl)c1")
"> 100 µM"
>>> reading("O=C(Cc1ccccc1)NN1C(=O)/C(=C\\c2cccc(O)c2)SC1=Nc1ccccc1")
"> 100 µM"
>>> reading("CN(NC(=O)c1cccs1)C1=NCCCN1")
"> 100 µM"
>>> reading("Cn1cc(C2=C(c3cn(CCCCCN)c4ccccc34)C(=O)NC2=O)c2ccccc21")
"> 25 µM"
>>> reading("Cc1c(C2=C(Br)C(=O)N(C)C2=O)c(=O)n(C)c(=O)n1C")
"58.6 µM"
>>> reading("CC1=NN(c2ccc(S(=O)(=O)O)cc2)C2(C1)SCC(=O)N2c1nc2ccccc2s1 (stereo unspecified)")
"> 100 µM"
>>> reading("CC(=O)O[C@H]1CC[C@@]2(C)C(=CC[C@H]3[C@@H]4C[C@H](N5CCCC5)[C@H](OC(C)=O)[C@@]4(C)CC[C@@H]32)C1")
"82.4 µM"
